Each record here notes measured LD50 at 168 h.
- test-details: Acute toxicity LD50 in ICR mice (Test Example 11)
- protocol-conditions: mouse, in vivo; intravenous; one week; Provit method; read-out: LD50 Value (mg/kg of body weight) Intravenous administration
measure-name: LD50 at 168 h (mg/kg)

O=c1oc(C(=Cc2ccccc2)c2nc3ccccc3c(=O)o2)nc2ccccc12: 319
CCOC(=O)c1ccccc1NC(=O)C(=Cc1ccccc1)C(=O)Nc1ccccc1C(=O)OCC: 347
CC(C)(C)OC(=O)c1ccccc1NC(=O)C(=Cc1ccccc1)C(=O)Nc1ccccc1C(=O)OC(C)(C)C: 312
COC(=O)c1ccccc1NC(=O)C(=Cc1ccccc1)C(=O)Nc1ccccc1C(=O)OC: 238

====

- test-details: Acute toxicity LD50 in mice (Test Example 8)
- protocol-conditions: mouse, in vivo, po; one week; Probit method; read-out: LD50 value (mg/kg body weight) Mouse p.o.
measure-name: LD50 at 168 h

O=C(Nc1ccccc1C(=O)O)C(=Cc1ccc(Cl)cc1)C(=O)Nc1ccccc1C(=O)O [Compound 30]: 8380 mg/kg
COc1cc(C=C(C(=O)Nc2ccccc2C(=O)O)C(=O)Nc2ccccc2C(=O)O)ccc1O [Compound 24]: > 10000 mg/kg
CCOC(=O)c1ccccc1NC(=O)C(=Cc1ccccc1)C(=O)Nc1ccccc1C(=O)OCC [Compound 14]: > 10000 mg/kg
O=C(Nc1ccccc1C(=O)O)C(=Cc1ccccc1)C(=O)Nc1ccccc1C(=O)O [Compound 11]: > 10000 mg/kg
COc1ccc(C=C(C(=O)Nc2ccccc2C(=O)O)C(=O)Nc2ccccc2C(=O)O)cc1OC [Compound 20]: > 10000 mg/kg

====

- test-details: Acute toxicity LD50 in mice (Test Example 8)
- protocol-conditions: mouse, in vivo, iv; one week; Probit method; read-out: LD50 value (mg/kg body weight) Mouse i.v.
measure-name: LD50 at 168 h (mg/kg)

COc1ccc(C=C(C(=O)Nc2ccccc2C(=O)O)C(=O)Nc2ccccc2C(=O)O)cc1OC [Compound 20]: 225
CCOC(=O)c1ccccc1NC(=O)C(=Cc1ccccc1)C(=O)Nc1ccccc1C(=O)OCC [Compound 14]: 299
O=C(Nc1ccccc1C(=O)O)C(=Cc1ccccc1)C(=O)Nc1ccccc1C(=O)O [Compound 11]: 344
COc1cc(C=C(C(=O)Nc2ccccc2C(=O)O)C(=O)Nc2ccccc2C(=O)O)ccc1O [Compound 24]: 275
O=C(Nc1ccccc1C(=O)O)C(=Cc1ccc(Cl)cc1)C(=O)Nc1ccccc1C(=O)O [Compound 30]: 258

====

Examples of compounds with documented LD50 at 168 h follow.
- test-details: Acute toxicity LD50 in rats (Test Example 8)
- protocol-conditions: rat, in vivo, po; one week; Probit method; read-out: LD50 value (mg/kg body weight) Rat p.o.
measure-name: LD50 at 168 h

O=C(Nc1ccccc1C(=O)O)C(=Cc1ccccc1)C(=O)Nc1ccccc1C(=O)O: > 10000 mg/kg
COc1ccc(C=C(C(=O)Nc2ccccc2C(=O)O)C(=O)Nc2ccccc2C(=O)O)cc1OC: > 10000 mg/kg

====

- tested-on: hyaluronidase (Bos taurus)
- Sequence (Q2YDK3 36-553): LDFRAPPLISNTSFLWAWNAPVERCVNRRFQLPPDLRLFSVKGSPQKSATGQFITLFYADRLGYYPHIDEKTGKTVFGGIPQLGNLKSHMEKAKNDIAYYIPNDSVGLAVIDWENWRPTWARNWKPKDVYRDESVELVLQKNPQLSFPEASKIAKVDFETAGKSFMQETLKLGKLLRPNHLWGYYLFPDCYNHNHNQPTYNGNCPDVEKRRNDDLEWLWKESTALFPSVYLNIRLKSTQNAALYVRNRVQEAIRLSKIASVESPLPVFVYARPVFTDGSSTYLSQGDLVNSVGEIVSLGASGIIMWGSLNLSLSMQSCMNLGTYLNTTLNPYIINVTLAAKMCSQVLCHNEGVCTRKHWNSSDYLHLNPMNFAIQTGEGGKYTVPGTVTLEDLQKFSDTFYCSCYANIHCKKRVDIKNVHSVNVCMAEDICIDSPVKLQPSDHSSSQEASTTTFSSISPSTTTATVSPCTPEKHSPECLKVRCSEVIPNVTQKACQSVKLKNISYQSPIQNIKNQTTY
- test-details: Anti-hyaluronidase activity (modified Morgan-Elson method)
- Format: biochemical
- protocol-conditions: hyaluronidase 340NF unit/ml; activating agent Compound 48/80 or CaCl2; read-out: IC50
pIC50: −log10 of the molar value.
# pIC50 per entry
measure-name: pIC50

O=C(Nc1ccccc1C(=O)O)C(=Cc1ccccc1Cl)C(=O)Nc1ccccc1C(=O)O [Compound 32]: 4.60
O=C(Nc1ccccc1C(=O)O)C(=Cc1ccc(Br)cc1)C(=O)Nc1ccccc1C(=O)O [Compound 33]: 4.82
O=C(Nc1ccccc1C(=O)O)C(=Cc1ccc(F)cc1)C(=O)Nc1ccccc1C(=O)O [Compound 34]: 4.60
CC(=O)Nc1ccc(C=C(C(=O)Nc2ccccc2C(=O)O)C(=O)Nc2ccccc2C(=O)O)cc1 [Compound 29]: 4.70
